- Organism: Rattus norvegicus
- PROTOCOL TEXT: Open TG-GATES - Regimen: Daily Repeat
- Type: toxicity, organism-based, Sprague-Dawley
- Set-up: regimen Daily Repeat, gender Male, age 6 weeks
- CONDITION DESCRIPTION: in vivo, po, 1000 mg/kg, 72 h, tissue Liver, route gavage, dose level High, time 3 day
ENDPOINT LABEL: LIVER (g)
Give bare numbers, in g.

Worked cases, LIVER given:
| MOLECULE | QUANTITATIVE RESULT |
| --- | --- |
| CCCCNC(=O)NS(=O)(=O)c1ccc(C)cc1 [TOLBUTAMIDE] | 11.5 |
| CC(S)C(=O)NCC(=O)O (centres undefined) | 10.7 |
| O=C(O)c1ccccc1Nc1ccccc1 | 10.8 |

I would be grateful if you could share the reported LIVER for `CC(=O)[C@@]1(O)CC[C@H]2[C@@H]3C=C(Cl)C4=CC(=O)CC[C@]4(C)[C@H]3CC[C@@]21C` .
12.4

----------
What Ht was measured for each of the following?
- Organism: Rattus norvegicus
- PROTOCOL TEXT: Open TG-GATES - Regimen: Single
- Assay type: toxicity, organism-based, Sprague-Dawley
- Design: regimen Single, gender Male, age 6 weeks
- CONDITION DESCRIPTION: in vivo, po, 0 mg/kg, 24 h, tissue Blood, route gavage, dose level Control
Numbers only, in %.

Below are some compounds; for each one, tell me its Ht.
1. NS(=O)(=O)c1cc(C(=O)O)c(NCc2ccco2)cc1Cl [FUROSEMIDE]
2. O=C(O)c1ccccc1Nc1ccccc1
3. CCN(CC)C(=S)SSC(=S)N(CC)CC
4. COc1cc2ncnc(Nc3ccc(F)c(Cl)c3)c2cc1OCCCN1CCOCC1
5. CN(C)CCCN1c2ccccc2Sc2ccc(Cl)cc21
6. CCO
7. CCCCNC(=O)NS(=O)(=O)c1ccc(C)cc1 [TOLBUTAMIDE]
8. CN(C/C=C/C#CC(C)(C)C)Cc1cccc2ccccc12

39.3
40.9
38.4
39.9
38.5
39.6
40.5
39.1

Need Ht for each of these compounds.
1. CC(=O)[C@@]1(O)CC[C@H]2[C@@H]3C=C(Cl)C4=CC(=O)CC[C@]4(C)[C@H]3CC[C@@]21C
2. CC(S)C(=O)NCC(=O)O (centres undefined)
3. O=c1ccc2ccccc2o1
4. CN(CCOc1ccc(CC2SC(=O)NC2=O)cc1)c1ccccn1.O=C(O)/C=C\C(=O)O (centres undefined) [ROSIGLITAZONE MALEATE]
5. COc1ccc([C@@H]2Sc3ccccc3N(CCN(C)C)C(=O)[C@@H]2OC(C)=O)cc1
6. Nc1ccc(Cc2ccc(N)cc2)cc1

40.9
39.6
39.3
38.9
39.6
37.9

----------
- Organism: Rattus norvegicus
- PROTOCOL TEXT: Open TG-GATES - Regimen: Daily Repeat
- Type: toxicity, organism-based, Sprague-Dawley
- Parameters: regimen Daily Repeat, gender Male, age 6 weeks
- CONDITION DESCRIPTION: in vivo, po, 1000 mg/kg, […], tissue Blood, route gavage, dose level High, time 7 day
What PT was measured for each of the following?
Answers are plain numbers, in s.

// known answers, use as guide
| COMPOUND | QUANTITATIVE RESULT |
| --- | --- |
| O=C(O)c1ccccc1Nc1ccccc1 | 14.1 |
| CC(=O)[C@@]1(O)CC[C@H]2[C@@H]3C=C(Cl)C4=CC(=O)CC[C@]4(C)[C@H]3CC[C@@]21C | 15 |
| CC(S)C(=O)NCC(=O)O (centres undefined) | 15.4 |

Next up:
Looking for the measured PT of CCCCNC(=O)NS(=O)(=O)c1ccc(C)cc1 [TOLBUTAMIDE] , can you help?
12.9
